assay: Solubility assessment in H2O, saturated solution measured by HPLC; format: physicochemical; conditions: water, thermodynamic from solid; equilibrated for 4 h

# molecule, solubility at 4 h (mg/mL)
measured = [
    ("CC(C)Oc1ccc(-c2nc(-c3cccc4c3CC[C@@H]4NCCO)no2)cc1C#N [Form CS9, ozanimod]", 0.36),
]

====

assay: Solubility assessment in H2O, saturated solution measured by HPLC; format: physicochemical; settings: water, thermodynamic from solid; equilibrated for 1 h

# compound, solubility at 1 h
rows = [
    ("CC(C)Oc1ccc(-c2nc(-c3cccc4c3CC[C@@H]4NCCO)no2)cc1C#N [Form CS9, ozanimod]", "470 µg/mL"),
]
